This section presents compounds with their documented pKd values.
- assay.notes: Binding affinity against melibiose permease ofEscherichia coli
- Set-up: species or system Escherichia coli
Schema: pKd number; meaning minus log10 of the concentration expressed in molar units.

>>> measured_result("OC[C@H]1OC(Oc2ccc(C3(C(F)(F)F)N=N3)cc2)[C@H](O)[C@@H](O)[C@@H]1O (stereo partly drawn)")
5.70
>>> measured_result("N#[N+]c1ccc(OC2O[C@H](CO)[C@@H](O)[C@H](O)[C@H]2O)cc1 (stereo partly drawn)")
4.22

Shifting focus to the compound that follows.
QUERY: So what does the record say about pKd for [N-]=[N+]=Nc1ccc(OC2O[C@H](CO)[C@@H](O)[C@H](O)[C@H]2O)cc1 (stereo partly drawn) ?
RESULT: 6.00
